Taken from patent US20180185504A1.

Target: T1, hPRLR.mmh (soluble monomeric human PRLR) (human)
T1 construct: called soluble monomeric PRLR protein
T1 chain: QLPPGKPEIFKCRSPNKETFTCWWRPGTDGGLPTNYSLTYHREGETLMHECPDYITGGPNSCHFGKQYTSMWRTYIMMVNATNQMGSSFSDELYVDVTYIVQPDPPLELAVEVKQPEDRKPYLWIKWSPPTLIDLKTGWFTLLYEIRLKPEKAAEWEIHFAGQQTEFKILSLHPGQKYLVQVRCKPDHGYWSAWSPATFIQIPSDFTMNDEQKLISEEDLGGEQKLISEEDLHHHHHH
Experiment: SPR Biacore, 25 C, mAb capture
experimentalReadout: kon (M⁻¹ s⁻¹)

# binder, valueUnits, assayValue
measured = [
    ("H1H6967N (antibody, human IgG1, V domains shown, Tested with human IgG1 Fc (H1H); also called H2M6967N) VH: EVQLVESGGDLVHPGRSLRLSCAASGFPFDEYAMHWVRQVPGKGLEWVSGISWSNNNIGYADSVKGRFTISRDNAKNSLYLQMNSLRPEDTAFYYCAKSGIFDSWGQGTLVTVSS VL: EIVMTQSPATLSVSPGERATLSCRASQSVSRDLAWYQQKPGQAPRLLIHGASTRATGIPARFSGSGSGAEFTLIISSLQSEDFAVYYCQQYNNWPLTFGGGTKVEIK", "M⁻¹ s⁻¹", 246000),
]
